# METHOD_DESCRIPTION: Tanguay_ZF_120hpf_SNOU_legacy: (Legacy) Oregon State University Tanguay Lab 120 Hour Post-fertilization zebrafish Assay for Snout Malformation (AID 2283637)
Inconclusive results are not listed. Calls of active or inactive are those of the source. How the source made its calls: active means hit-call score of the fitted dose curve at least 0.9, where 1 is the maximum; inconclusive means response in the unintended direction; inactive means score below 0.9.
Answer with one of the outcomes active, inactive

Answered cases to consult:
| MOLECULE | ANSWER_LABEL |
| --- | --- |
| O=C1CN(N=Cc2ccc([N+](=O)[O-])o2)C(=O)N1 | inactive |
| C=CN1CCCC1=O | inactive |
| Cn1c(=O)c2[nH]cnc2n(C)c1=O | inactive |
| O=c1[nH]cnc2c1ncn2[C@H]1CC[C@@H](CO)O1 | inactive |
| CC1(C)C(=O)N(Cl)C(=O)N1Cl | inactive |

Check the results log: what was the call for CCCCCCCCCCCCCCO ?
inactive

Check the results log: what was the call for CCCCOC(=O)c1ccccc1 ?
inactive

Check the results log: what was the call for CCCC(CCC)C(=O)O ?
inactive
